// data source = patent US20250243176A1

TEST_DETAILS: Solubility testing in aqueous media at various pH (Form III)
Format: physicochemical
PROTOCOL_CONDITIONS: simulated gastric fluid, thermodynamic from solid; pH 1.0 (0.1N HCl); RT; 24 h
MEASURED_PROPERTY: solubility at 24 h (µg/mL)
Expressed in µg/mL, but write only the number.

Q: Name the recorded solubility at 24 h for C=CC(=O)N1CCC[C@@H](c2c(F)cc(C(N)=O)c3[nH]c4c(c23)CCCCC4)C1 [Compound 1] .
Ans: 0.8

* * *

TEST_DETAILS: Solubility testing in vehicle, HPLC (Form III)
Format: physicochemical
PROTOCOL_CONDITIONS: aqueous with cosolvent or surfactant or cyclodextrin, thermodynamic from solid; 10% SBE-B-CD; RT; 72 h; pH 6.5; loading 15 mg/mL
MEASURED_PROPERTY: solubility at 72 h (µg/mL)
Report the figure in µg/mL without appending any unit label.

Q: Requested read-out: solubility at 72 h. Entry: C=CC(=O)N1CCC[C@@H](c2c(F)cc(C(N)=O)c3[nH]c4c(c23)CCCCC4)C1
Ans: 1610
